Assay: Caco-2 cell permeability
Type: in vitro ADME
Conditions: human, Caco-2, bidirectional (ABBA), A to B; n = 1 or average of n = 2-4; read-out: Caco2 Bidirectional (ABBA) A to B Papp
recorded metric: Papp A→B (×10⁻⁶ cm/s)

{"columns": ["compound", "recorded metric", "measurement units", "numeric value"],
 "data": [
  ["CC1CCCN(c2ccc3nccc(C(=O)NCC(=O)N4CSC[C@H]4C#N)c3c2)C1=O (single isomer, unassigned)", "Papp A→B", "×10⁻⁶ cm/s", 0.4]
]}

* * *

Recorded IC50 by entry
Target: FAP (Macaca fascicularis, UniProt A0A2K5VGH4)
Sequence (A0A2K5VGH4 entry or part of it): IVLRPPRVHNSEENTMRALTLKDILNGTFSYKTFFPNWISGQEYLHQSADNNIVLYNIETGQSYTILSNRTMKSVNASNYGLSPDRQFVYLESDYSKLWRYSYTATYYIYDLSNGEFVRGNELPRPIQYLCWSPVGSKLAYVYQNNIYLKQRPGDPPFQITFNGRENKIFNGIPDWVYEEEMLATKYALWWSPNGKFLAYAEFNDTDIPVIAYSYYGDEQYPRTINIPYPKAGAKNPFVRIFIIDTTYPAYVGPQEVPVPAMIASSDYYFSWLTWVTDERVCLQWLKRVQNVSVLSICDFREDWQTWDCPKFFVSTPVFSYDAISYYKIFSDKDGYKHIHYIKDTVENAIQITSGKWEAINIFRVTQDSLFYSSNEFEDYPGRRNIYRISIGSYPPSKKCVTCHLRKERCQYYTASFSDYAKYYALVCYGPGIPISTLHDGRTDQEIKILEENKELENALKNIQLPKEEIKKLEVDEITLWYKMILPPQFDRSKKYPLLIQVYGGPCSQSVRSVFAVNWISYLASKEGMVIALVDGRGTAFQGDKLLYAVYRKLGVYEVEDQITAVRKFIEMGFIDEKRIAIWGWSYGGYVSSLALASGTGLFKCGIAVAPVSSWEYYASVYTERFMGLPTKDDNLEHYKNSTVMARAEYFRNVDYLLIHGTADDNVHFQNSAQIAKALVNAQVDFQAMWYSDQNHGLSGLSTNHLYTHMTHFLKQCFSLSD
Assay: FAP plasma inhibition assay, cynomolgus plasma
Details: cynomolgus plasma diluted 1:40, 75 μM Ala-Pro-AMC; n = 1; read-out: FAP Cyno Plasma IC50
recorded metric: IC50 (nM)

{"columns": ["smiles", "recorded metric", "numeric value"],
 "data": [
  ["N#C[C@@H]1CSCN1C(=O)CNC(=O)c1c(F)cnc2ccc(N3CCOCC3)cc12", "IC50", 9.2],
  ["N#C[C@@H]1CSCN1C(=O)CNC(=O)c1ccnc2ccc(N3CCO[C@H](CF)C3)cc12", "IC50", 0.2],
  ["N#C[C@@H]1CSCN1C(=O)CNC(=O)c1ccnc2ccc(N3CC(F)(CF)C3)cc12", "IC50", 0.4],
  ["N#C[C@@H]1CSCN1C(=O)CNC(=O)c1ccnc2ccc(N3C[C@@H](F)[C@@H](F)C3)cc12", "IC50", 0.3],
  ["CC1(F)CN(c2ccc3nccc(C(=O)NCC(=O)N4CSC[C@H]4C#N)c3c2)C1", "IC50", 0.3],
  ["CN1CCC(F)(c2ccc3nccc(C(=O)NCC(=O)N4CSC[C@H]4C#N)c3c2)CC1", "IC50", 1],
  ["COC1CCN(c2ccc3nccc(C(=O)NCC(=O)N4CSC[C@H]4C#N)c3c2)CC1", "IC50", 0.2],
  ["C[C@@H]1CN(c2ccc3nccc(C(=O)NCC(=O)N4CSC[C@H]4C#N)c3c2)C[C@@H](C)O1", "IC50", 0.2],
  ["CC(=O)N1CC2(C1)CN(c1ccc3nccc(C(=O)NCC(=O)N4CSC[C@H]4C#N)c3c1)C2", "IC50", 0.3],
  ["CC(F)(F)C1CN(c2ccc3nccc(C(=O)NCC(=O)N4CSC[C@H]4C#N)c3c2)C1", "IC50", 0.1],
  ["C[C@@H]1CN(c2ccc3nccc(C(=O)NCC(=O)N4CSC[C@H]4C#N)c3c2)C[C@H](C)O1", "IC50", 0.3],
  ["N#C[C@@H]1CSCN1C(=O)CNC(=O)c1ccnc2ccc(N3CC4(C3)OCCO4)cc12", "IC50", 0.2],
  ["N#C[C@@H]1CSCN1C(=O)CNC(=O)c1ccnc2ccc(N3CCO[C@@H](CF)C3)cc12", "IC50", 0.2],
  ["C[C@@H]1OCCN(c2ccc3nccc(C(=O)NCC(=O)N4CSC[C@H]4C#N)c3c2)[C@H]1C", "IC50", 0.3],
  ["C[C@H]1COCCN1c1ccc2nccc(C(=O)NCC(=O)N3CSC[C@H]3C#N)c2c1", "IC50", 0.2],
  ["CC1(C)CN(c2ccc3nccc(C(=O)NCC(=O)N4CSC[C@H]4C#N)c3c2)CCO1", "IC50", 0.2],
  ["N#C[C@@H]1CSCN1C(=O)CNC(=O)c1ccnc2ccc(N3CC4(COC4)C3)cc12", "IC50", 0.3],
  ["COC1(C)CN(c2ccc3nccc(C(=O)NCC(=O)N4CSC[C@H]4C#N)c3c2)C1", "IC50", 0.3],
  ["N#C[C@@H]1CSCN1C(=O)CNC(=O)c1ccnc2ccc(N3CC(CF)C3)cc12", "IC50", 0.4],
  ["CC1(C)CCN(c2ccc3nccc(C(=O)NCC(=O)N4CSC[C@H]4C#N)c3c2)C(=O)O1", "IC50", 0.5],
  ["N#C[C@@H]1CSCN1C(=O)CNC(=O)c1ccnc2ccc(N3CC(C(F)F)C3)cc12", "IC50", 0.3],
  ["CC1(C)OCCN(c2ccc3nccc(C(=O)NCC(=O)N4CSC[C@H]4C#N)c3c2)C1=O", "IC50", 0.2],
  ["CC1(CF)CN(c2ccc3nccc(C(=O)NCC(=O)N4CSC[C@H]4C#N)c3c2)C1", "IC50", 0.3],
  ["N#C[C@@H]1CSCN1C(=O)CNC(=O)c1ccnc2ccc(N3CCO[C@H](C(F)(F)F)C3)cc12", "IC50", 0.2],
  ["CC(=O)NCC1(C)CN(c2ccc3nccc(C(=O)NCC(=O)N4CSC[C@H]4C#N)c3c2)C1", "IC50", 0.5],
  ["C[C@@H]1CN(c2ccc3nccc(C(=O)NCC(=O)N4CSC[C@H]4C#N)c3c2)CCO1", "IC50", 0.2],
  ["N#C[C@@H]1CSCN1C(=O)CNC(=O)c1ccnc2ccc(N3CCC(F)CC3)cc12", "IC50", 0.3],
  ["N#C[C@@H]1CSCN1C(=O)CNC(=O)c1ccnc2ccc(N3C4CCC3COC4)cc12", "IC50", 0.3]
]}
